Quick reference: melting point of the listed items.

>>> observed_result("O=C(O)Cn1nnc(-c2ccccc2)n1")
"180 to 182 °C"
>>> observed_result("CCC(C)n1ncc(C(=O)O)c1C1CC1 (configuration not stated)")
"116 to 118 °C"
>>> observed_result("N#Cc1ccccc1OCc1cccc(C(=O)O)c1")
"153 to 155 °C"
>>> observed_result("N#Cc1ccc(Cl)cc1NC1CCOCC1")
"143 to 145 °C"
>>> observed_result("CC(C)c1c(C(=O)O)nnn1-c1ccc(F)cc1")
"146 to 148 °C"
>>> observed_result("Cc1cccc(C(=O)NO)c1O")
"139 to 141 °C"

Q. I am curious: what melting point value has been reported for O=C1Nc2cc(F)c(Cl)cc2C1=O ?
A. 256 to 258 °C

###

metric-name: melting point

>>> observed_result("O=C(O)c1oc2cc(Cl)ccc2c1-c1ccccc1")
"229 to 231 °C"
>>> observed_result("O=C(O)c1ccc(S(=O)(=O)Cl)c(F)c1")
"188 to 190 °C"

Q. GET /values?readout=melting point&item= Nc1nc(-c2ccccc2)cn1N
A. 258 to 260 °C

Q. Another compound to check: CCOC(=O)c1ccc(S(=O)(=O)N2CCCC2C(=O)O)o1 (stereo not drawn)
A. 124 to 126 °C

Q. What about this compound? O=C(CCl)c1c[nH]c2ccccc12
A. 183 to 185 °C

Q. Would you kindly repeat that for Cc1ccccc1-c1nonc1N ?
A. 88 to 90 °C

Q. Try Sc1nnc(NC2CC2)s1 next.
A. 170 to 172 °C

###

# maps each entry to its melting point

>>> observed_result("CCOC(=O)c1c(N)sc2c1CCNC2")
"121 to 123 °C"
>>> observed_result("CON(C)S(=O)(=O)c1ccc(Br)cc1")
"81 to 83 °C"

Q. Could you tell me which melting point is on file for NNC(=S)NCC(N)=O ?
A. 153 to 155 °C

Q. Follow-up entry: NNC(=O)C1CCCC1
A. 112 to 114 °C

Q. Also CCCOc1ccc(CC(=O)O)cc1OCCC , if possible.
A. 59 to 61 °C

###

metric-name: melting point

Consider the worked cases shown below.
>>> observed_result("CC(C)(C)OC(=O)N1CCCNC(=O)C1")
"112 to 114 °C"
>>> observed_result("CN(C)c1cccc(N)n1")
"41 to 43 °C"
>>> observed_result("CC(C)(C)NCCS(C)(=O)=O")
"39 to 41 °C"
>>> observed_result("O=S1(=O)CC(O)C(S(=O)(=O)Cl)C1 (configuration not stated)")
"111 to 113 °C"

Q. Please look up its melting point: Nc1cccc(-n2ccnc2S)c1
A. 176 to 178 °C

Q. Lookup Nc1cc(F)c([N+](=O)[O-])cc1C(=O)O
A. 249 to 251 °C

Q. And the next one, CNS(=O)(=O)CCC(=O)OCc1ccccc1 ?
A. 59 to 61 °C

###

metric-name: melting point

>>> observed_result("O=C(O)c1cccc([N+](=O)[O-])c1N1CCOCC1")
"196 to 198 °C"
>>> observed_result("NNC(=O)c1n[nH]c2c1CCCC2")
"176 to 178 °C"
>>> observed_result("Nc1ccc(-c2nc3cc(Br)ccc3s2)cc1")
"189 to 191 °C"
>>> observed_result("CN(C)c1ncnc2nc[nH]c12")
"256 to 258 °C"
>>> observed_result("CC(C)Nc1ccc(Br)cn1")
"69 to 71 °C"
>>> observed_result("O=C(O)c1ccc(S(=O)(=O)N2CCCc3ccccc32)cc1")
"170 to 172 °C"

Q. Report melting point for Cc1nc(N)nc(Cl)c1Br please.
A. 189 to 191 °C

Q. Same thing, different compound: O=C(O)CNC(=O)NCC1CCCC1
A. 138 to 140 °C

Q. // query: Nc1cc(C(=O)O)ccc1OCC(F)(F)F
A. 176 to 178 °C

Q. Repeat for the following compound: N#CC(C(=O)CCl)=C1Nc2ccccc2N1
A. 285 to 287 °C

Q. Thanks! And CC(=O)Nc1c(C)cccc1C(=O)O ?
A. 204 to 206 °C

Q. Now the compound O=[N+]([O-])c1cc(S(=O)(=O)Cl)ccc1O
A. 52 to 54 °C

Q. Another compound to look at: O=C(O)c1cc(-c2ccccc2)nc2c1cnn2Cc1ccncc1
A. 279 to 281 °C

Q. Queued: O=C(O)Cc1cccc(OCC(F)(F)F)c1
A. 99 to 101 °C

Q. How about NC(=O)c1c(C2CCCCC2)csc1N ?
A. 164 to 166 °C

Q. Repeat with O=C1CC(C(=O)O)CS1 (stereo not drawn)
A. 108 to 110 °C

// provenance: a melting point compilation (Tetko et al.)
